- Protocol Description: Liver microsomal stability, human
- Format: in vitro ADME
- Condition Details: human liver microsomes; read-out: LM stability Human t ½
Readout Name: half-life

Request: Any idea what half-life was measured for O=c1ccc2c(C(F)(F)F)c(-c3ccc(Cl)cn3)ccc2[nH]1 [Ex 97] ?
Result: > 2.42 h

---

- Protocol Description: Liver microsomal stability, mouse
- Format: in vitro ADME
- Condition Details: mouse liver microsomes; read-out: LM stability Mouse t ½
Readout Name: half-life (min)
Answers are plain numbers, in min.

Request: Any idea what half-life was measured for O=c1ccc2c(Cl)cc(Cl)cc2[nH]1 [Ex 3, 5,7-dichloro-1H-quinolin-2-one] ?
Result: 4.2

meta.source: patent US20250144110A1
